Reference for the values: patent US20220378923A1

- Test system: SU-DHL-4 cells
- Assay comment: Inhibitory effect on cell viability in SU-DHL-4 cell line (Test Example 1)
- Format: cell-based, human
- Condition set: SU-DHL-4 cells, 72 hours, Cell Counting Kit-8; concentration showing 90% inhibition of cell viability; read-out: SU-DHL-4 Cell Viability Inhibition Rate IC90
Exercise: state measured log10 IC90 for each of the molecules provided.
Plainly stated, the numbers are log10 of IC90 given in nM.

// query log10 IC90 value for entry CCC(=O)N1c2ccccc2[C@H](Nc2ccc(NC(=O)CCCC(=O)Nc3cccc(Oc4ccc(NS(=O)(=O)CC)cc4-c4cn(C)c(=O)cc4OC)c3)cc2)C[C@@H]1C [Compound 16j]
// result 0.49

// query Okay, and CCC(=O)N1c2ccccc2[C@H](Nc2ccc(NC(=O)CCCC(=O)NC3CCC(N[C@@H]4C[C@H](C)N(C(=O)CC)c5ccccc54)CC3)cc2)C[C@@H]1C (some centres unmarked) ?
// result 0.06

// query Field entry: CCC(=O)N1c2ccccc2[C@H](Nc2ccc(-c3cnn(C4CCN(C(=O)C5CCC(N[C@@H]6C[C@H](C)N(C(=O)CC)c7ccccc76)CC5)CC4)c3)cc2)C[C@@H]1C (relative stereo)
// result -0.85

// query Field entry: CCC(=O)N1c2ccccc2[C@H](Nc2ccc(NC(=O)NCCNC(=O)C3CCC(N[C@@H]4C[C@H](C)N(C(=O)CC)c5ccccc54)CC3)cc2)C[C@@H]1C (relative stereo)
// result 0.07

// query // repeat for CCC(=O)N1c2ccccc2[C@H](Nc2ccc(C(=O)NCCCNC(=O)c3ccc(Cn4c(CC)cc5c4CCCC5=O)cc3)cc2)C[C@@H]1C (relative stereo) and report
// result 1.60
